From: ChEMBL document CHEMBL1145145

The entries below are paired with their reported pEC50.
Molecular target: Protein farnesyltransferase (Mus musculus, UniProt Q61239+Q8K2I1)
Assay: Effective concentration against H-ras processing in transformed NIH3T3 cells
Format: functional, cell-based
pEC50: −log10 of the molar value.

The cases that follow already have their pEC50 on record.
Cn1cncc1C(OCc1ccc(C#N)cc1)c1ccc(C#N)c(-c2ccc(Cl)cc2Cl)c1 (stereo not drawn)    < 6.00
Cc1cccc(-c2cc(C(OCc3ccc(C#N)cc3)c3cncn3C)ccc2C#N)c1C (stereo not drawn)    < 6.00

# ---- query compound ----
// pEC50 lookup, compound = Cn1cncc1C(OCc1ccc(C(F)(F)F)c(F)c1)c1ccc(C#N)c(-c2ccccc2C(F)(F)F)c1 (stereo not drawn) , result: < 6.00
